Values were extracted from paper PMC9352680.

# measured target: T1, PUF4 RNA-binding domain (Saccharomyces cerevisiae, UniProt P25339 537-888)
# T1 sequence: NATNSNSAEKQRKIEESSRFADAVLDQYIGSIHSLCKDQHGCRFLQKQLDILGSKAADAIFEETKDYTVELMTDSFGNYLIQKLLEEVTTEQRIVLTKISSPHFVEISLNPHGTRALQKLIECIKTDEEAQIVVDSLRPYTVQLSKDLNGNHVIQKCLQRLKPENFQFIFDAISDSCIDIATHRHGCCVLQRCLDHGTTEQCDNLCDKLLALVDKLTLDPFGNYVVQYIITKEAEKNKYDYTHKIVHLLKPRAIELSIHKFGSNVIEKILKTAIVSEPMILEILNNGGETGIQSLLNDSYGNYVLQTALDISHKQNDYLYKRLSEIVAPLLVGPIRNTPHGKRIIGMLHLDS
# method: Mg; RNA-MaP; 20 mM Na-HEPES pH 7.4, 30 mM KOAc, 0.75 mM MgCl2, 0.1% Tween-20, 5% glycerol, 0.1 mg/mL BSA, 2 mM DTT; 25 C; 0.0125-409.6 nM protein
# measurement setup: tags: N-His6-TEV cleaved; C-SNAP kept, Cy3B-labelled; label: tethered on chip by stalled RNA polymerase
endpoint name: pKd
Conceptually, pKd converts a concentration in mol/L into minus its log10.

>  <binder>
UCUCUUUGUAUAUAUAAGUCUCUU (ssRNA) [Id_ii_S1_P3E.3_K3.2_C3.2_[C-2T]_[T-1G]_H3.2_A3.1_F3.1_T3.2_[T9A]_[A10G]]

>  <reported value>
8.08

$$$$
>  <binder>
Id_ii_S4_P4E.3_K4.2_C4.2_[T-1A]_H4.2_A4.1_F4.1_T4.2_[G10C]_[T11A] (ssRNA) RNA: UUUGACAACUGAUCGUUCUUUCUCAUAUAUAUUACAUUCUUUCUCGAUCAGUUGUCUUU

>  <reported value>
7.64

$$$$

Q: Can you look up the measured pKd of UCUCUUGUACACUAUAUAUCUCUU (ssRNA) [Id_ii_S1_P3E.4_K3.3_C3.2_[C-2G]_H3.3_A3.1_F3.1_T3.2] for me?
Result: 9.09
